The reported numbers originate from PubChem BioAssay AID1159580.

test: chemical genetic growth profiling, strain panel (AID 1159580);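 also: tested at 20 µM; growth read once vehicle control cultures reached saturation at 30 °C; 1 = growth at the plate median or of vehicle wells; lower values mean less growth of the strain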; settings: S. cerevisiae deletion strains, growth OD, locus YHR079C, strain IRE1 (second series)
Screen size: about 5,500 compounds; about 2,000 (36%) were called active. Another 18% or so got no clear call; they are omitted. Rule as the data show it: active = normalized growth mostly below about 0.91 (no sharp cut-off); inconclusive = no clear call, values can overlap the other calls; inactive = mostly above about 0.92. The list shows a part of the results.
Answer with one of the outcomes active, inactive

Completed entries (count: 3):
COc1ccc2c(c1OC)C(=O)OC2[C@H]1c2c(cc3c(c2OC)OCO3)CCN1C (stereo partly drawn)	inactive
CCCC(=O)O[C@]1(C(=O)CO)CCC2[C@@H]3CCC4=CC(=O)CC[C@]4(C)C3[C@@H](O)C[C@@]21C (stereo partly drawn)	inactive
O=S1OCC2C(CO1)C1(Cl)C(Cl)=C(Cl)C2(Cl)C1(Cl)Cl (stereo not drawn)	inactive

Prompt: Test call, this molecule: "Oc1ccc(Cl)cc1Cc1cc(Cl)ccc1O"
Response: active

Prompt: State the result this test recorded for COC(=O)[C@@H]1OC(=O)[C@H]2O[C@@]23[C@@]1(C)CCC1[C@@]2(C)CCC(=O)C(C)(C)C2C[C@@H](OC(C)=O)[C@]13C (stereo partly drawn) .
Response: inactive

Prompt: How was "CCN(CC)CCOC(=O)c1ccc(N)cc1" classified in this test?
Response: inactive

Prompt: Fill in: this test's call for "O=C1OC(c2ccc(O)cc2)(c2ccc(O)cc2)c2ccccc21" is ___
Response: inactive

Prompt: Hi, do you know how "Cc1c(Cl)cccc1Nc1ccccc1C(=O)O" came out in this test?
Response: active

Prompt: Per the records of this test, what outcome belongs to "COC(=O)C1=CCCN(C)C1" ?
Response: inactive

Prompt: For "CC(=O)N[C@@H](CS)C(=O)O" , which call appears in the assay record?
Response: inactive

Prompt: Field: outcome | Entry: "Cc1cccc(C(=O)O)c1O"
Response: inactive

----------
assay: chemical genetic growth profiling, strain panel (AID 1159580); conditions: S. cerevisiae deletion strains, growth OD, locus YER110C
The campaign covered roughly 5,500 compounds. About 2,000 (36%) were called active. Inconclusive results (about 18%) are left out. No stated cut-off is given here; in the data, active means normalized growth mostly below about 0.91 (no sharp cut-off); inconclusive means no clear call, values can overlap the other calls; inactive means mostly above about 0.92. This is one part of the list.
In this exercise, the only acceptable responses are 1 = active, -1 = inactive

O=C1OC(c2ccc(O)cc2)(c2ccc(O)cc2)c2ccccc21	-1

Now take the following compound into account.
Prompt: Just curious, what result did CCCNC1CCc2nc(N)sc2C1 (configuration not stated) get here?
Response: -1

----------
This listing pairs molecules with measured normalized growth.
test: chemical genetic growth profiling, strain panel (AID 1159580); settings: S. cerevisiae deletion strains, growth OD, locus YDL040C, strain nat1, active compounds read low
The whole screen tested about 5,500 compounds, of which about 2,000 (36%) were called active. Not shown: some 18% with an inconclusive outcome. The list shows a part of the results.
Answer with a number only.

Entry under test: Nc1ccn(C2O[C@H](CO)[C@@H](O)[C@@H]2O)c(=O)n1 (some centres not stated) . Its normalized growth was 0.984

Measured normalized growth, "O=C(O)CN(CC(=O)O)Cc1cc2c(-c3ccccc3C(=O)O)c3cc(CN(CC(=O)O)CC(=O)O)c(=O)cc-3oc2cc1O" : 0.964

----------
Overview of reported normalized growth across a group of compounds:
assay: chemical genetic growth profiling, strain panel (AID 1159580); conditions: S. cerevisiae strains, growth OD, strain wild type, active compounds read low
Screen size: about 5,500 compounds; about 2,000 (36%) were called active. Roughly 18% stayed inconclusive and do not appear here. The list shows a part of the results.
Form: value (number only, do not type unit).

CCCCOC(=O)c1ccccc1C(=O)OCc1ccccc1	0.981
O=C1NC(=O)C(=O)C(=O)N1	1.02

Proceed to the following item.
# normalized growth (compound: COc1ccc2c(c1O)OCC1c3cc4c(cc3OC21)OCO4 (stereo not given) ) is 0.994

----------
test: chemical genetic growth profiling, strain panel (AID 1159580); details: S. cerevisiae deletion strains, growth OD, locus YAL030W, strain snc1, active compounds read low
Structures can show the parent of a compound that is named as a salt. The campaign covered roughly 5,500 compounds. About 2,000 (36%) were called active. About 18% were inconclusive and are not listed. Some of the results follow. Where a SMILES comes first, the peptide text is derived from it. The star is where a group is joined. Tfa = O=C(C(F)(F)F)*
Each entry below carries its reported normalized growth.
In your answer, state the number alone without any accompanying words.

// below: answered molecules
O=C1OC(c2ccc(O)cc2)(c2ccc(O)cc2)c2ccccc21	0.994
CCOC(=O)c1ccc(O)cc1	1.01
O=C1OC2(c3ccc(O)cc3Oc3cc(O)ccc32)c2ccccc21	1.01

Memo: "CC(=O)N[C@@H](CS)C(=O)O" , reported normalized growth: 0.995

So, CC(C)C(NC(=O)C(Cc1ccc(O)cc1)NC(=O)C(NC(=O)C(F)(F)F)C(C)C)C(=O)O (stereo not drawn) (Tfa-Val-Tyr-Val-OH; configuration not given here) ? Its normalized growth was 0.985

----------
experiment: chemical genetic growth profiling, strain panel (AID 1159580);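 also: tested at 20 µM; growth read once vehicle control cultures reached saturation at 30 °C; 1 = growth at the plate median or of vehicle wells; lower values mean less growth of the strain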; details: S. cerevisiae deletion strains, growth OD, locus YBR009C, strain hhf1, active compounds read low
Screen size: about 5,500 compounds; about 2,000 (36%) were called active. About 18% were inconclusive and are not listed. The list shows a part of the results.
value-type: normalized growth
Keep the answer to the number alone.

// known answers, use as guide
O=S1OCC2C(CO1)C1(Cl)C(Cl)=C(Cl)C2(Cl)C1(Cl)Cl (configuration not stated)	0.989
COc1cc2c(cc1OC)C1Cc3ccc(OC)c(OC)c3CN1CC2 (configuration not stated)	0.972
Cc1cccc(C)c1NC1=NCCCS1	1.02

In plain terms, "Clc1cccc(Cl)c1NC1=NCCN1" has a documented normalized growth of 1

Given item "Cc1ccc(C)c(OCCCC(C)(C)C(=O)O)c1" , the value recorded as its normalized growth is 0.957

Record summary for "O=c1cc[nH]c(=S)[nH]1" : reported normalized growth = 0.964

So, "Cc1cc(-c2ccccc2)nnc1NCCN1CCOCC1" ? Its normalized growth was 0.989

----------
experiment: chemical genetic growth profiling, strain panel (AID 1159580);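 also: tested at 20 µM; growth read once vehicle control cultures reached saturation at 30 °C; 1 = growth at the plate median or of vehicle wells; lower values mean less growth of the strain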; details: S. cerevisiae deletion strains, growth OD, locus YOL147C, strain pex11, active compounds read low
The campaign covered roughly 5,500 compounds. About 2,000 (36%) were called active. About 18% were inconclusive and are not listed. This is one part of the list.
value-type: normalized growth
Could you keep your reply to the number by itself?

Per the records, this compound ( CC1C[C@H]2CC(=O)[C@H]3CCCN4CCC[C@H]2[C@]34C1 (some centres undefined) ) has normalized growth equal to 1.02

compound "O=C(O)c1ccccc1-c1c2cc(Br)c(=O)cc-2oc2[c]([Hg])c(O)c(Br)cc12" , normalized growth observed: 0.995

Record summary for CC1(C)C2CC(=O)[C@]3(C)C(CC[C@@]4(C)[C@H](c5ccoc5)OC(=O)[C@H]5O[C@]543)[C@@]2(C)C=C[C@@H]1O (some centres undefined) : reported normalized growth = 0.993

Form: compound = CC1(C)C2(Cl)C(Cl)C(Cl)C(Cl)(C(Cl)Cl)C1(Cl)C2Cl (centres undefined) ; normalized growth = 0.982

# compound "CO/N=C(\C(=O)N[C@@H]1C(=O)N2C(C(=O)O)=C(COC(C)=O)CS[C@H]12)c1csc(N)n1" ; its normalized growth = 1

The value of normalized growth measured for the compound "O=C(O)c1cc2cc(Cc3cccnc3)ccc2o1" turned out to be 0.995

So, "O=C(O)CN(CC(=O)O)Cc1cc2c(-c3ccccc3C(=O)O)c3cc(CN(CC(=O)O)CC(=O)O)c(=O)cc-3oc2cc1O" ? Its normalized growth was 1.02

Lookup result for "Nc1ccc(N=Nc2ccccc2)c(N)n1" ; measured normalized growth: 0.982

Notebook: CC1(C)OC(=O)C=CC2(C)C1CC(O)C1(C)C2CCC2(C)C(c3ccoc3)OC(=O)C3OC321 (centres undefined) , normalized growth read as 1.01

----------
assay: chemical genetic growth profiling, strain panel (AID 1159580);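 also: tested at 20 µM; growth read once vehicle control cultures reached saturation at 30 °C; 1 = growth at the plate median or of vehicle wells; lower values mean less growth of the strain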; conditions: S. cerevisiae deletion strains, growth OD, locus YPL031C, strain PHO85
The campaign covered roughly 5,500 compounds. About 2,000 (36%) were called active. Inconclusive results (about 18%) are left out. Rule as the data show it: active = normalized growth mostly below about 0.91 (no sharp cut-off); inconclusive = no clear call, values can overlap the other calls; inactive = mostly above about 0.92. This is one part of the list.
Log the outcome using a class from active, inactive

CCCCCCCCCCCC(=O)NOC(=O)c1c(-c2c(Cl)cccc2Cl)noc1C	inactive
OC(CN1CCN(c2nc3ccc(Cl)cc3s2)CC1)Cn1ccc2ccccc21 (stereo not given)	inactive
Cc1c(-c2ccnn2C(=O)c2ccco2)cnn1-c1ccccc1	inactive
Cc1ccc(NC(=O)c2ccccc2N=Cc2cc(Cl)cc(Cl)c2O)c(N=Cc2cc(Cl)cc(Cl)c2O)c1	active
ClC1=C(C=Nc2ccc(Cl)cc2)CSc2ccc(Cl)cc21	inactive

Prompt: Returns: the outcome recorded for "Cc1c(C(=O)N(Cc2ccccc2)Cc2cccs2)cnn1-c1ccc(Cl)cc1" in this assay.
Response: inactive
